Sourced from ChEMBL document CHEMBL1777701

- study-system: Sodium/glucose cotransporter 2 (Homo sapiens, UniProt P31639)
- Sequence (P31639 whole entry): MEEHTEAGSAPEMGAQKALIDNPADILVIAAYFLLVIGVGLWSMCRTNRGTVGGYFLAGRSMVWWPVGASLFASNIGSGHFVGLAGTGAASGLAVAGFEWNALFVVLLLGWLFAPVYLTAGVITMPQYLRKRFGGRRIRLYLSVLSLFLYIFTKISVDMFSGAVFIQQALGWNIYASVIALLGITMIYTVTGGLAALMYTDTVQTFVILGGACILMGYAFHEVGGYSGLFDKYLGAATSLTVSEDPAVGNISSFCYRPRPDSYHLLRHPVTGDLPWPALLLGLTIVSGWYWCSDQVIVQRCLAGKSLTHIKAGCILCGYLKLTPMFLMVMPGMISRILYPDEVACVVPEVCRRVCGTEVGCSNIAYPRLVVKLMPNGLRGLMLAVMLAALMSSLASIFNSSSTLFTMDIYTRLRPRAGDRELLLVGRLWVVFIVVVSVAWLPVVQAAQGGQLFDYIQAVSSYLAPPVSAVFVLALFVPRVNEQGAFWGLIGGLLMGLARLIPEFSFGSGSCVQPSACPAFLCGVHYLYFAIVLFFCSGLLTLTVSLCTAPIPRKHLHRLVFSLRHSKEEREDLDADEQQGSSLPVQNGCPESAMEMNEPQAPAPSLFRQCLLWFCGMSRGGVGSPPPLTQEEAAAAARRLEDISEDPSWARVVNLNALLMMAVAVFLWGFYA
- assay: Inhibition of human SGLT2 expressed in CHO cells using methyl-alpha-D-glucopyranoside by liquid scintillation counting
pIC50: −log10 of the molar value.
Each entry below carries its reported pIC50.
observed-property: pIC50

[[record]]
chemical_smiles = "OC[C@H]1O[C@@H](c2ccc3c(c2)Cc2ccc(cc2)OC/C=C/CCCC3)[C@H](O)[C@@H](O)[C@@H]1O"
value_measured = 6.99

[[record]]
chemical_smiles = "OC[C@H]1O[C@@H](c2ccc3c(c2)Cc2ccc(cc2)OC/C=C/CCC3)[C@H](O)[C@@H](O)[C@@H]1O"
value_measured = 7.05

[[record]]
chemical_smiles = "OC[C@H]1O[C@@H](c2ccc3c(c2)Cc2ccc(cc2)OCCCCCC3)[C@H](O)[C@@H](O)[C@@H]1O"
value_measured = 7.09

[[record]]
chemical_smiles = "OC[C@H]1O[C@@H](c2ccc3c(c2)Cc2ccc(cc2)OCCCCCCC3)[C@H](O)[C@@H](O)[C@@H]1O"
value_measured = 7.00

